subjectOfTest: Cytochrome P450 2C19 (Homo sapiens) (UniProt P33261)
Sequence (P33261 whole entry, looked up): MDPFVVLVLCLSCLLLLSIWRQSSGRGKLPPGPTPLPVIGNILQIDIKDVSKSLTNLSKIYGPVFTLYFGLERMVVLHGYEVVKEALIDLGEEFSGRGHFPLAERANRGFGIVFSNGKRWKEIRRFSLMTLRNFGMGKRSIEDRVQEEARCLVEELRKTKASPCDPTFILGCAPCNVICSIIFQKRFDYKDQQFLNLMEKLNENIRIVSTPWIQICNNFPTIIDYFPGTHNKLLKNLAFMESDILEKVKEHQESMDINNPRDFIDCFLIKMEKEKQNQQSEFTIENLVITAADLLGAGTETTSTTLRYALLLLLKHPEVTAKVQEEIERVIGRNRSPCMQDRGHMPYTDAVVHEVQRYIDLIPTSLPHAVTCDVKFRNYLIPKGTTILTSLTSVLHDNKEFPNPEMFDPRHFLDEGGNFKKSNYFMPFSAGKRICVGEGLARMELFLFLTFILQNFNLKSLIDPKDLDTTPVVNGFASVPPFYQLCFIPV
experiment: Cytochrome panel assay with activity outcomes
assayContext: recombinant CYP, pro-luciferin dealkylation, luminescence, p450-cyp2c19; series mostly up to 57.1 µM
The whole screen tested about 16,000 compounds, of which about 5,800 (36%) were called active. Not shown: some 23% with an inconclusive outcome. Calls come from the whole dose curve; as a rule, active = well fitted curve in the direction sought with a large enough effect; inconclusive = small, poorly fitted or top-dose-only effect, or effect the other way; inactive = no such curve, though single readings can be large or run the other way. The list shows a part of the results.
Please answer using one outcome listed in active, inactive

Nc1nc(Cl)nc2c1ncn2[C@@H]1O[C@@H](CO)[C@@H](O)[C@H]1O ... inactive
COc1ccc(CN(C(=O)Cc2cccs2)C(C(=O)NC2CCCC2)c2ccncc2)cc1 (stereo not given) ... active
c1cc(CN2CCCCC2)cc(OCCCNc2nc3ccccc3s2)c1 ... inactive
O=[N+]([O-])c1ccc(/C=N/N/C(=N/c2ccccn2)c2ccccn2)cc1 ... active
O=C(NCc1cccs1)C1CCN(S(=O)(=O)c2cccc3nsnc23)CC1 ... inactive
Clc1ccc(/C=N/c2c(-c3ccc(Cl)cc3)nc3n2CCS3)cc1 ... active

q: Identify the outcome logged in this assay for the molecule shown: "COc1ccc2nc3oc(C(=O)NCc4cccs4)cc3cc2c1"
a: inactive

q: Thanks! And "CN(C(=S)NC(=O)c1ccccc1Br)C1CCCCC1" ?
a: active

q: Can you handle "CCCn1cnc2c(SCc3ccc(Cl)cc3)nc(N)nc21" next?
a: active
